Test system: HIV-1 strain HTLV-IIIB
Experiment: In vitro anti-HIV-1 activity, p24 antigen assay in PBMNC
Format: cell-based
Settings: Human immunodeficiency virus 1, HIV-1, HTLV-IIIB, day 7
Attribute: pIC50
To interpret pIC50, take it as minus log10 of a concentration measured in moles per litre.

Consider the reported pIC50 for these compounds:
Output pIC50 of Cc1cn([C@H]2C=C[C@@H](CO)O2)c(=O)[nH]c1=O [d4T, 2′, 3′-Didehydro-3′-deoxy thymidine, reference compound]
7.64

Output pIC50 of COC(=O)C(C)NP(=O)(OC[C@@H]1C=C[C@H](n2cc(C)c(=O)[nH]c2=O)O1)Oc1ccc(Br)cc1 (stereo partly drawn) [Compound 113]
9.00

// moving on: another record for pIC50
Output pIC50 of COC(=O)C(C)NP(=O)(OCC1C=CC(n2cc(C)c(=O)[nH]c2=O)O1)Oc1ccc(Cl)cc1 (stereo not drawn) [Compound 609]
9.00

###

Assay: Pharmacokinetic studies in mice, intravenous administration
Type: in vivo, Balb/c mice
Settings: female, Balb/c, mouse, in vivo, iv, 75 mg/kg, plasma analyte = label; after i.v. 75 mg/kg Ala-d4T-MP; mean ± S.E.M; read-out: tmax (converted)
METRIC: Tmax (min)
Enter your answer as a number in min; do not include the unit.

Output Tmax of Cc1cn([C@H]2C=C[C@@H](CO)O2)c(=O)[nH]c1=O [d4T, 2′, 3′-Didehydro-3′-deoxy thymidine, reference compound]
5

###

Experiment: Hydrolysis rate in alkali conditions
Format: physicochemical
Response key: 1.0 means Hydrolysis Rate >= 0.02 min⁻¹; 0.0 means Hydrolysis Rate < 0.02 min⁻¹.

The examples below pair each entry with its known result.
Given COC(=O)[C@H](C)NP(=O)(OCC1C=CC(n2cc(C)c(=O)[nH]c2=O)O1)Oc1cccc(N(C)C)c1 (stereo partly drawn) [Compound 599] , state whether its Hydrolysis Rate is at least 0.02 min⁻¹.
0.0

Given COC(=O)[C@H](C)NP(=O)(OCC1C=CC(n2cc(C)c(=O)[nH]c2=O)O1)Oc1ccccc1 (stereo partly drawn) [Compound 607] , state whether its Hydrolysis Rate is at least 0.02 min⁻¹.
0.0

Given COC(=O)C(C)NP(=O)(OCC1C=CC(n2cc(C)c(=O)[nH]c2=O)O1)Oc1ccc(Cl)cc1 (stereo not drawn) [Compound 609] , state whether its Hydrolysis Rate is at least 0.02 min⁻¹.
1.0

Given COC(=O)C(C)NP(=O)(OCC1C=CC(n2cc(C)c(=O)[nH]c2=O)O1)Oc1ccc(Br)cc1Cl (stereo not drawn) [Compound 603] , state whether its Hydrolysis Rate is at least 0.02 min⁻¹.
1.0

Given COC(=O)[C@H](C)NP(=O)(OCC1C=CC(n2cc(C)c(=O)[nH]c2=O)O1)Oc1ccc(F)cc1 (stereo partly drawn) [Compound 604] , state whether its Hydrolysis Rate is at least 0.02 min⁻¹.
0.0

Moving on to another compound below.
Given COC(=O)[C@H](C)NP(=O)(OCC1C=CC(n2cc(C)c(=O)[nH]c2=O)O1)Oc1ccc(OC)cc1 (stereo partly drawn) [Compound 598] , state whether its Hydrolysis Rate is at least 0.02 min⁻¹.
0.0

###

Experiment: Pharmacokinetic studies in mice, intravenous administration
Format: in vivo, Balb/c mice
Conditions: female, Balb/c, mouse, in vivo, iv, 75 mg/kg, plasma analyte = label; after i.v. 75 mg/kg Ala-d4T-MP; mean ± S.E.M
METRIC: Cmax (µM)
Enter your answer as a number in µM; do not include the unit.

Output Cmax of Cc1cn([C@H]2C=C[C@@H](CO)O2)c(=O)[nH]c1=O [d4T, 2′, 3′-Didehydro-3′-deoxy thymidine, reference compound]
35.9

###

Assay: Pharmacokinetic studies in mice, intravenous administration
Format: in vivo, Balb/c mice
Details: female, Balb/c, mouse, in vivo, iv, 100 mg/kg, plasma analyte = label; after i.v. 100 mg/kg compound 113; mean ± S.E.M; read-out: tmax (converted)
METRIC: Tmax (min)
Enter your answer as a number in min; do not include the unit.

Output Tmax of Cc1cn([C@H]2C=C[C@@H](CO)O2)c(=O)[nH]c1=O [d4T, 2′, 3′-Didehydro-3′-deoxy thymidine, reference compound]
17.4

###

Assay: Pharmacokinetic studies in mice, intravenous administration
Assay type: in vivo, Balb/c mice
Details: female, Balb/c, mouse, in vivo, iv, 100 mg/kg, plasma analyte = label; after i.v. 100 mg/kg compound 113; estimate from composite curve of pooled data
METRIC: half-life

Output half-life of Cc1cn([C@H]2C=C[C@@H](CO)O2)c(=O)[nH]c1=O [d4T, 2′, 3′-Didehydro-3′-deoxy thymidine, reference compound]
115 min

###

Assay: Pharmacokinetic studies in mice, intravenous administration
Format: in vivo, Balb/c mice
Settings: female, Balb/c, mouse, in vivo, iv, 75 mg/kg, plasma analyte = label; after i.v. 75 mg/kg Ala-d4T-MP; estimate from composite curve of pooled data
METRIC: Cmax
The reply must contain the numeric value and, after it, the unit.

Output Cmax of Cc1cn([C@H]2C=C[C@@H](CO)O2)c(=O)[nH]c1=O [d4T, 2′, 3′-Didehydro-3′-deoxy thymidine, reference compound]
35.2 µM

###

Assay: Pharmacokinetic studies in mice, intravenous administration
Format: in vivo, Balb/c mice
Details: female, Balb/c, mouse, in vivo, iv, 40 mg/kg, after i.v. 40 mg/kg d4T; estimate from composite curve of pooled data; read-out: AUC (converted)
METRIC: AUC (µM·h)
Enter your answer as a number in µM·h; do not include the unit.

Output AUC of Cc1cn([C@H]2C=C[C@@H](CO)O2)c(=O)[nH]c1=O [d4T, 2′, 3′-Didehydro-3′-deoxy thymidine, reference compound]
204

###

Test: Pharmacokinetic studies in mice, intravenous administration
Assay type: in vivo, Balb/c mice
Conditions: female, Balb/c, mouse, in vivo, iv, 40 mg/kg, after i.v. 40 mg/kg d4T; estimate from composite curve of pooled data
METRIC: clearance (mL/min/kg)
Enter your answer as a number in mL/min/kg; do not include the unit.

Output clearance of Cc1cn([C@H]2C=C[C@@H](CO)O2)c(=O)[nH]c1=O [d4T, 2′, 3′-Didehydro-3′-deoxy thymidine, reference compound]
15

###

Assay: Pharmacokinetic studies in mice, intravenous administration
Format: in vivo, Balb/c mice
Details: female, Balb/c, mouse, in vivo, iv, 40 mg/kg, after i.v. 40 mg/kg d4T; estimate from composite curve of pooled data
METRIC: half-life (min)
Enter your answer as a number in min; do not include the unit.

Output half-life of Cc1cn([C@H]2C=C[C@@H](CO)O2)c(=O)[nH]c1=O [d4T, 2′, 3′-Didehydro-3′-deoxy thymidine, reference compound]
30.3

###

Assay: Pharmacokinetic studies in mice, intravenous administration
Format: in vivo, Balb/c mice
Details: female, Balb/c, mouse, in vivo, iv, 40 mg/kg, after i.v. 40 mg/kg d4T; estimate from composite curve of pooled data; read-out: Vss
METRIC: Vd (L/kg)
Enter your answer as a number in L/kg; do not include the unit.

Output Vd of Cc1cn([C@H]2C=C[C@@H](CO)O2)c(=O)[nH]c1=O [d4T, 2′, 3′-Didehydro-3′-deoxy thymidine, reference compound]
0.658

###

Test: Pharmacokinetic studies in mice, intravenous administration
Type: in vivo, Balb/c mice
Conditions: plasma analyte = label; after i.v. 100 mg/kg compound 113; mean ± S.E.M
METRIC: Cmax (µM)
Enter your answer as a number in µM; do not include the unit.

Output Cmax of Cc1cn([C@H]2C=C[C@@H](COP(=O)(O)NC(C)C(=O)O)O2)c(=O)[nH]c1=O (stereo partly shown) [Ala-d4T-MP, alaninyl-d4T-monophosphate]
69.3

###

Test: Pharmacokinetic studies in mice, intravenous administration
Type: in vivo, Balb/c mice
Details: female, Balb/c, mouse, in vivo, iv, 40 mg/kg, after i.v. 40 mg/kg d4T; mean ± S.E.M
METRIC: half-life (min)
Enter your answer as a number in min; do not include the unit.

Output half-life of Cc1cn([C@H]2C=C[C@@H](CO)O2)c(=O)[nH]c1=O [d4T, 2′, 3′-Didehydro-3′-deoxy thymidine, reference compound]
26.6

###

Assay: Pharmacokinetic studies in mice, intravenous administration
Format: in vivo, Balb/c mice
Details: female, Balb/c, mouse, in vivo, iv, 100 mg/kg, plasma analyte = label; after i.v. 100 mg/kg compound 113; mean ± S.E.M; read-out: Vss
METRIC: Vd
The reply must contain the numeric value and, after it, the unit.

Output Vd of COC(=O)C(C)NP(=O)(OC[C@@H]1C=C[C@H](n2cc(C)c(=O)[nH]c2=O)O1)Oc1ccc(Br)cc1 (stereo partly shown)
0.92 L/kg

###

Assay: Pharmacokinetic studies in mice, oral administration
Type: in vivo, Balb/c mice
Details: plasma analyte = label; after oral 100 mg/kg compound 113; mean ± S.E.M
METRIC: Cmax (µM)
Enter your answer as a number in µM; do not include the unit.

Output Cmax of Cc1cn([C@H]2C=C[C@@H](COP(=O)(O)NC(C)C(=O)O)O2)c(=O)[nH]c1=O (stereo partly shown) [Ala-d4T-MP, alaninyl-d4T-monophosphate]
15.6
